- assay-text: growth inhibitors of H69AR lung tumor, primary screen, human, duplicate replicates (AID 580);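 also: 100% = mean luminescence of untreated wells and 0% = no signal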
- protocol-conditions: H69AR lung tumor cells viability, ATP luminescence, 72 h; at 10 µM; stronger effect = lower value
Recorded viability for the following molecules
Give the value in % but do not write % after it.

>  <molecule>
O=C(CCNNC(=O)c1ccncc1)NCc1ccccc1

>  <quantity-name>
viability

>  <reported-value>
93.5

$$$$
>  <molecule>
COc1cc(C2C3=C(CC(C)(C)CC3=O)Nc3c2c(=O)[nH]c(=O)n3Cc2ccccc2)ccc1O (stereo not given)

>  <quantity-name>
viability

>  <reported-value>
93.7

$$$$
>  <molecule>
COC(=O)c1cccc(NC(=O)CSc2nnc(COc3ccccc3)n2C)c1

>  <quantity-name>
viability

>  <reported-value>
101

$$$$
>  <molecule>
Cc1c(OCC(F)(F)F)ccnc1CS(=O)c1nc2ccccc2[nH]1 (stereo not given)

>  <quantity-name>
viability

>  <reported-value>
93.8

$$$$
>  <molecule>
CCOc1ccc(C2/C(=C(/O)c3ccccc3)C(=O)C(=O)N2CCCN(C)C)cc1OC (stereo not given)

>  <quantity-name>
viability

>  <reported-value>
100

$$$$

Exercise: May I ask what viability has been recorded for COc1ccc(CCNc2oc(-c3ccccc3OC)nc2C#N)cc1 ?
Key: 95.2

Exercise: May I ask what viability has been recorded for Cc1csc(NC(=O)c2ccccc2C(=O)O)n1 ?
Key: 95.3

Exercise: May I ask what viability has been recorded for Cn1ncc2c(Nc3ccccc3Br)ncnc21 ?
Key: 106

Exercise: May I ask what viability has been recorded for N#CC1=C(N)OC2=C(CCC/C2=C/c2ccoc2)C1c1ccoc1 (stereo not given) ?
Key: 80.8

Exercise: May I ask what viability has been recorded for O=C(CSc1nnc(-c2ccco2)n1CC1CCCO1)NC1CCCC1 (stereo not given) ?
Key: 94.3

====

- assay-text: reversal of MRP1-mediated doxorubicin resistance, pilot screen, H69AR cells, doxorubicin co-treatment (AID 601)
- protocol-conditions: H69AR cells, CellTiter-Glo, 72 h; compound alone cytotoxicity; at 10 µM
quantity-name: viability
State the value with its unit after it.

Below, each entry is followed by its recorded viability result.
>  <molecule>
O=C(NCCN1CCOCC1)C1CCC(=O)N1Cc1ccccc1Cl (configuration not stated)

>  <quantity-name>
viability

>  <reported-value>
90%

$$$$
>  <molecule>
NC(=O)C1(N2CCCCC2)CCN(CC(=O)Nc2cc(Cl)ccc2Cl)CC1

>  <quantity-name>
viability

>  <reported-value>
91.8%

$$$$
>  <molecule>
CN(Cc1ccccc1)Cc1nc2c([nH]1)c(=O)[nH]c(=O)n2C

>  <quantity-name>
viability

>  <reported-value>
90.9%

$$$$
>  <molecule>
Cc1cc(C)cc(NC(=O)c2nnn(Cc3cc(C)ccc3C)c2N)c1

>  <quantity-name>
viability

>  <reported-value>
88.1%

$$$$
>  <molecule>
Cc1ccc(S(=O)(=O)Cn2nnnc2C(C(C)C)N2CCN(C(=O)c3ccco3)CC2)cc1 (configuration not stated)

>  <quantity-name>
viability

>  <reported-value>
91.3%

$$$$

Exercise: May I ask what viability has been recorded for O=C(c1c(Cl)nc2sccn12)N(C(=O)c1c(Cl)nc2sccn12)c1ccc(Cl)cn1 ?
Key: 70.8%

Exercise: May I ask what viability has been recorded for Cn1c(=O)c2c(nc(Br)n2CCSc2nnnn2-c2ccccc2)n(C)c1=O ?
Key: 80.4%

Exercise: May I ask what viability has been recorded for CCCCn1c(CN2CCN(CCO)CC2)nc2ccccc21 ?
Key: 96%

Exercise: May I ask what viability has been recorded for CCOc1cc2oc(=O)c3c(c2cc1Cl)CCC3 ?
Key: 85.6%

Exercise: May I ask what viability has been recorded for Nc1ccc(S(=O)(=O)c2ccc(N)cc2)cc1 ?
Key: 106%
